Can you tell me TGI for the items I'm about to list?
system: OVCAR-4 ovarian; assay: NCI tumour cell line growth inhibition, 48 h
Where a SMILES comes first, the peptide text is derived from it. [ ]: non-standard residue; d: D form. The star is where a group is joined. X28 = COC1=CC(=O)N(C(=O)[C@@H](O*)C(C)C)[C@H]1Cc1ccccc1; NMeV = CN[C@H](C(=O)O)C(C)C; Hexanoyl = CCCCCC(=O)*

Answered examples (8):
# molecule, TGI
records = [
    ("O=C(NCCCCCCNC(=O)n1cc(F)c(=O)[nH]c1=O)NCCCOCCOCCOCCOCCOCCOCCOCCOCCOCCOCCOCCOCCOCCOCCOCCOCCOCCOCCOCCOCCOCCCNC(=O)C(O)C(O)C(O)C(O)CO (centres undefined)", "> 100 µM"),
    ("CC1OC(O[C@@H]2OC=C(C=O)[C@@]3(O)CC[C@H](C)[C@@H]23)C(O)C(O)C1O (some centres undefined)", "> 100 µM"),
    ("COc1ccc2c(c1)/C(=C\\c1c(C)nc3sccn13)C(=O)N2", "> 100 µM"),
    ("COc1cc(Cn2c3ccccc3c3cc(C)c4c(c32)C=CC(C)(CCC=C(C)C)O4)cc2c1[nH]c1ccccc12 (centres undefined)", "> 100 µM"),
    ("COc1ccc2oc(=N)c(C(=O)NCc3ccccc3)cc2c1", "> 100 µM"),
    ("O=Nc1c(O)cc(Nc2ccc(Br)cc2)c2ccccc12", "> 100 µM"),
    ("CCOc1ccc(NC(=O)C(=O)CC(=O)C2=C(C)Nc3ccccc3S2)cc1", "> 50 µM"),
    ("COc1cccc(-n2ncc3c(N/N=C/c4ccc(C(=O)NCCN(C)C)cc4)ncnc32)c1", "7.56 µM"),
]

Hi there! I need TGI for each item below, if you can.
1. CCOP(=O)(OCC)C1CC(O)C(=O)N1 (centres undefined)
2. NCCn1c(=O)[nH]c(=O)[nH]c1=S

[reply]
> 100 µM
> 100 µM

Could you report TGI for every entry in the following list?
1. Cc1ccccc1[P+](Cc1ccccc1)(c1ccccc1)c1ccccc1
2. COc1ccc(/C=C(/C#N)C(N)=O)cc1OC
3. CCCCCCCCCCCC(=O)OCC1OC(n2cc(F)c(=O)[nH]c2=O)C(NC(=O)OCc2ccccc2)C(OC(=O)CCCCCCCCCCC)C1O (centres undefined)
4. CC(NNC(=O)c1ccncc1)c1ccc(F)cc1 (centres undefined)
5. CCCCCC(=O)N[C@H](C(=O)N[C@H](C(=O)N(C)[C@H](C(=O)N1CCC[C@H]1C(=O)N1CCC[C@H]1C(=O)O[C@H](C(=O)N1C(=O)C=C(OC)[C@@H]1Cc1ccccc1)C(C)C)C(C)C)C(C)C)C(C)C (Hexanoyl-VV[NMeV]PP-X28)
6. COc1ccc2nc(N/N=C/C(C)=N/Nc3cc(C)c4cc(OC)ccc4n3)cc(C)c2c1

[reply]
["> 100 µM", "> 100 µM", "> 100 µM", "> 100 µM", "> 100 µM", "35.6 µM"]

Dear colleague, could you please provide TGI for the molecules listed below?
1. Cn1cccc1-c1cc(-c2cccs2)nc(N)c1C#N
2. CCCNC1=C(C(=O)OCC)C(=O)CO1
3. CN(C)CCCNC(CC#N)CCC#N (centres undefined)
4. CC(C)c1cc(-c2n[nH]c(=O)n2-c2ccc3c(ccn3C)c2)c(O)cc1O
5. C=CCNc1nc(C#N)c(N)s1
6. N=c1oc2cc(O)ccc2cc1C(=O)NCc1ccccc1
7. O=C1C=C2C(=NC34CCCCC3C(c3ccccc3)C3=C(c5ccccc5CC3)N24)c2ccccc21 (centres undefined)
8. CCOC(=O)N/N=C(/OCC)c1ccccc1

[reply]
["> 100 µM", "> 100 µM", "> 10 µM", "> 86.1 µM", "> 10 µM", "> 100 µM", "> 10 µM", "> 100 µM"]

Okay, here is my list. What is TGI for each of these?
1. O=S(=O)(O)c1ccc2cccc(N=Nc3c(O)ccc4ccccc34)c2c1
2. COC(=O)[C@@]1(C)CC[C@]2(C)CC[C@]3(C)C4=CC=C5C(=CC(=O)C(O)=C5C)[C@]4(C)[C@@H](O)C[C@@]3(C)[C@@H]2C1
3. CCCc1[nH]c(SCCCCCCCCSc2nc(-c3ccc(F)cc3)c(CCC)[nH]2)nc1-c1ccc(F)cc1
4. CCN(CC)CSc1nc2ccccc2s1
5. COc1ccc(-c2ccc(/C=N/n3c(COc4ccc(Cl)cc4Cl)nn(CN4CCOCC4)c3=S)o2)c([N+](=O)[O-])c1
6. COc1cc(C2CC(c3ccc4c(c3)OCO4)=NN2C=O)cc(OC)c1OC (centres undefined)

[reply]
1. > 100 µM
2. 19.7 µM
3. 95.4 µM
4. > 100 µM
5. 78.8 µM
6. > 100 µM

// for each molecule below, give its TGI
1. CCOC(CN=C=S)OCC
2. CCSCCC(N)C(=O)O (centres undefined)
3. COc1ccc(-c2csc(N(C(=O)N3CCN(c4cc5c(cc4F)c(=O)c(C(=O)O)cn5C4CC4)CC3)c3ccccc3)n2)cc1
4. CSc1ncc2c(C#N)c3sc4ccccc4n3c(=O)c2n1
5. N#Cc1c(N2CCCC2)[nH]c(=O)c(C(c2c(Cl)cccc2Cl)c2c(O)c(C#N)c(N3CCCC3)[nH]c2=O)c1O

[reply]
["> 10 µM", "> 100 µM", "> 100 µM", "> 100 µM", "33.7 µM"]

Each molecule below has a reported value. Please supply its TGI.
1. C/C(=N\NS(=O)(=O)c1ccccc1)c1ccc(Cl)c(Cl)c1
2. COc1ccc(-c2nn3c(-c4cc(F)c(Cl)cc4Cl)nnc3s2)cc1
3. NC(=O)N/N=C1\CCCCc2ccccc21
4. Cc1ccc(N=Nc2c(O)c(C(=O)O)cc3ccccc23)cc1C

[reply]
1: > 100 µM; 2: 87.4 µM; 3: > 10 µM; 4: > 100 µM
